- experimental system: NLRP3 inflammasome (Homo sapiens, UniProt Q96P20)
- Sequence (Q96P20 whole entry): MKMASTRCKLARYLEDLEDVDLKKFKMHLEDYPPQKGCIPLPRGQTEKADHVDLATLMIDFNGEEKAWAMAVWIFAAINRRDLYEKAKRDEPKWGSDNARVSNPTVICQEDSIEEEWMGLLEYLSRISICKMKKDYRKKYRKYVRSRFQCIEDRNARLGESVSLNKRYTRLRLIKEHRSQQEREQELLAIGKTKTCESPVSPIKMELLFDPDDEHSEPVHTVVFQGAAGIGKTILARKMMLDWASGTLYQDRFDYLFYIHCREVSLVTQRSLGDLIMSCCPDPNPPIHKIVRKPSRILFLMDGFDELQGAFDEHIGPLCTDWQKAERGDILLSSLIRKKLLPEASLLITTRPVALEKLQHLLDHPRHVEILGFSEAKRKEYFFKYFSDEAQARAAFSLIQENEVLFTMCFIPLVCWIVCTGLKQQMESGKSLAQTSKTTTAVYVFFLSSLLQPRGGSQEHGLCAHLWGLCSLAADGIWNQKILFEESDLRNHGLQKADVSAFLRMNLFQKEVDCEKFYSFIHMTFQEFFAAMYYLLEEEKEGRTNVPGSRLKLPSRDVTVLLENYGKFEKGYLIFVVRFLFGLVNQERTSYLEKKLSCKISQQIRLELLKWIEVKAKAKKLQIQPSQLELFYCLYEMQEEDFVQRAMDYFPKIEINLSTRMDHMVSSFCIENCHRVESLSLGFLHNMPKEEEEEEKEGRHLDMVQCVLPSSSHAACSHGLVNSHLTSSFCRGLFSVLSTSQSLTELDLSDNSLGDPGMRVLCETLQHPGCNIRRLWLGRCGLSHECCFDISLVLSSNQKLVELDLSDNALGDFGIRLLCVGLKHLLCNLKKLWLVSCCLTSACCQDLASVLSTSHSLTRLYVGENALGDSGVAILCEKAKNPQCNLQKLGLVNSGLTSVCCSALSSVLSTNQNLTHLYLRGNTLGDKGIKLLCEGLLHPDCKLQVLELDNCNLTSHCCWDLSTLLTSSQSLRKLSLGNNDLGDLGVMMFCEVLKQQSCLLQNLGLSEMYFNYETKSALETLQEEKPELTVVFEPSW
- protocol description: NLRP3 inflammasome activation in THP1 macrophages, IL-1β AlphaLISA
- details: IL-1β Activity (nM), THP1 macrophages, PMA, LPS priming, nigericin 6.7 uM activation
property measured: IC50

[[record]]
entry_smiles = "CCN1CCC[C@@H](Nc2cc(C)c(-c3ccccc3O)nn2)C1"
experimental_system = "NLRP3 inflammasome (Homo sapiens, UniProt Q96P20)"
result_value = "< 1 nM"

[[record]]
entry_smiles = "CCc1ccc(-c2nnc(N[C@@H]3CCCN(C)C3)cc2C)c(O)c1"
experimental_system = "NLRP3 inflammasome (Homo sapiens, UniProt Q96P20)"
result_value = "< 1 nM"

[[record]]
entry_smiles = "Cc1cc(-c2nnc(N(C)[C@@H]3CCCN(C)C3)cc2C)c(O)cc1F"
experimental_system = "NLRP3 inflammasome (Homo sapiens, UniProt Q96P20)"
result_value = "100 to 500 nM"

[[record]]
entry_smiles = "Cc1cc(N(C)[C@@H]2CCCN(C)C2)nnc1-c1ccc(C#N)cc1O"
experimental_system = "NLRP3 inflammasome (Homo sapiens, UniProt Q96P20)"
result_value = "< 1 nM"

[[record]]
entry_smiles = "Cc1cc(F)cc(O)c1-c1ccc(N(C)[C@@H]2CCCN(C)C2)nn1"
experimental_system = "NLRP3 inflammasome (Homo sapiens, UniProt Q96P20)"
result_value = "10 to 100 nM"

[[record]]
entry_smiles = "CCN1CCC[C@@H](Nc2cc(C)c(-c3ccc(F)cc3O)nn2)C1"
experimental_system = "NLRP3 inflammasome (Homo sapiens, UniProt Q96P20)"
result_value = "< 1 nM"

[[record]]
entry_smiles = "Cc1ccc(O)c(-c2ccc(N(C)[C@@H]3CCCN(C)C3)nn2)c1"
experimental_system = "NLRP3 inflammasome (Homo sapiens, UniProt Q96P20)"
result_value = "> 1000 nM"

[[record]]
entry_smiles = "Cc1cc(-c2ccc(N[C@@H]3CCCN(C)C3)nn2)c(O)cc1F"
experimental_system = "NLRP3 inflammasome (Homo sapiens, UniProt Q96P20)"
result_value = "100 to 500 nM"

[[record]]
entry_smiles = "Cc1cc(-c2ccccc2O)nnc1N[C@@H]1CCCN(CCF)C1"
experimental_system = "NLRP3 inflammasome (Homo sapiens, UniProt Q96P20)"
result_value = "> 1000 nM"


----------
- experimental system: UniProt Q96P20
- protocol description: NLRP3 inflammasome activation in THP1 macrophages, IL-1β AlphaLISA
- details: IL-1β Activity, THP1 macrophages; Table 11 comparison
property measured: IC50

[[record]]
molecule = "Cc1cc(N[C@@H]2CCCN(C)C2)nnc1-c1ccccc1O"
result_value = "1 to 10 nM"

[[record]]
molecule = "Cc1cc(F)cc(O)c1-c1ccc(N(C)[C@@H]2CCCN(C)C2)nn1"
result_value = "10 to 100 nM"

[[record]]
molecule = "CCc1ccc(-c2nnc(N[C@@H]3CCCN(C)C3)cc2C)c(O)c1"
result_value = "< 1 nM"

[[record]]
molecule = "Cc1ccc(-c2nnc(N[C@@H]3CCCN(C)C3)cc2C)c(O)c1 [C, reference compound]"
result_value = "< 1 nM"

[[record]]
molecule = "Cc1cccc(O)c1-c1ccc(N(C)[C@@H]2CCCN(C)C2)nn1"
result_value = "10 to 100 nM"

[[record]]
molecule = "Cc1cc(N[C@@H]2CCCN(C)C2)nnc1-c1ccc(C#N)cc1O"
result_value = "< 1 nM"


----------
- experimental system: NLRP3 inflammasome (Homo sapiens, UniProt Q96P20)
- protocol description: NLRP3 inflammasome activation in THP1 macrophages, IL-1β AlphaLISA
property measured: IL-1ß activity (in words)

[[record]]
compound = "Cc1cc(N[C@@H]2CCCN(C)C2)nnc1-c1ccc(OC(F)(F)F)cc1O [B, reference compound]"
property_measured = "IL-1ß activity (in words)"
result_value = "potent"

[[record]]
compound = "CCc1ccc(-c2nnc(N[C@@H]3CCCN(C)C3)cc2C)c(O)c1 [compound 15]"
property_measured = "IL-1ß activity (in words)"
result_value = "potent"

[[record]]
compound = "Cc1cc(N[C@@H]2CCCN(C)C2)nnc1-c1ccc(Cl)cc1O [D, reference compound]"
property_measured = "IL-1ß activity (in words)"
result_value = "potent"


----------
- experimental system: NLRP3 inflammasome (Homo sapiens, UniProt Q96P20)
- protocol description: NLRP3 inflammasome activation in THP1 macrophages, IL-1β AlphaLISA
- details: IL-1β Activity (nM), THP1 macrophages, PMA, LPS priming, nigericin 6.7 uM activation
property measured: IC50

[[record]]
molecule = "Cc1cc(N(C)[C@@H]2CCCN(C)C2)nnc1-c1ccc(F)cc1O [compound 26]"
result_value = "1 to 10 nM"

[[record]]
molecule = "Cc1cc(F)cc(O)c1-c1ccc(N[C@@H]2CCCN(C)C2)nn1 [compound 6]"
result_value = "< 1 nM"

[[record]]
molecule = "Cc1cc(-c2ccc(Cl)cc2O)nnc1N[C@@H]1CCCN(C)C1 [compound 83]"
result_value = "1 to 10 nM"

[[record]]
molecule = "Cc1cc(N[C@H]2CN(C)CC(F)(F)C2)nnc1-c1ccccc1O [compound 40]"
result_value = "500 to 1000 nM"

[[record]]
molecule = "Cc1cc(N[C@@H]2CCN(C)C2)nnc1-c1ccc(C(F)(F)F)cc1O [compound 96]"
result_value = "1 to 10 nM"

[[record]]
molecule = "Cc1cc(-c2cc(C)c(N[C@@H]3CCCN(C)C3)nn2)c(O)cc1F [compound 79]"
result_value = "100 to 500 nM"

[[record]]
molecule = "Cc1cc(N[C@H]2CN(C)CC[C@@H]2F)nnc1-c1ccc(F)cc1O [compound 48]"
result_value = "10 to 100 nM"

[[record]]
molecule = "Cc1cc(-c2nnc(N[C@@H]3CCCN(C)C3)cc2C)c(O)cc1F [compound 65]"
result_value = "1 to 10 nM"

[[record]]
molecule = "Cc1cc(N[C@@H]2C[C@@H](F)CN(C)C2)nnc1-c1ccccc1O [compound 41]"
result_value = "10 to 100 nM"

[[record]]
molecule = "Cc1cc(-c2ccc(C(=O)O)cc2O)nnc1N[C@@H]1CCCN(C)C1 [compound 93]"
result_value = "> 1000 nM"

[[record]]
molecule = "Cc1cc(N[C@@H]2CCCN(C)C2)nnc1-c1ccc(F)c(C)c1O [compound 63]"
result_value = "< 1 nM"

[[record]]
molecule = "Cc1cc(N(C)[C@@H]2CCCN(C)C2)nnc1-c1ccccc1O [compound 23]"
result_value = "10 to 100 nM"

[[record]]
molecule = "Cc1c(F)ccc(-c2ccc(N[C@@H]3CCCN(C)C3)nn2)c1O [compound 10]"
result_value = "10 to 100 nM"

[[record]]
molecule = "CN1CC[C@@H](Nc2ccc(-c3ccc(F)cc3O)nn2)C1 [compound 30]"
result_value = "> 1000 nM"

[[record]]
molecule = "Cc1cc(N[C@@H]2CCCN(C)C2)nnc1-c1c(C)cc(F)cc1O [compound 62]"
result_value = "1 to 10 nM"


----------
- experimental system: NLRP3 inflammasome (Homo sapiens)
- protocol description: NLRP3 inflammasome activation in THP1 macrophages, IL-1β AlphaLISA
property measured: IC50

[[record]]
compound = "Cc1cc(NC[C@H]2COCCO2)nnc1-c1ccccc1O [compound 119]"
result_value = "> 1000 nM"

[[record]]
compound = "Cc1cc(NC[C@H]2CCCN2C)nnc1-c1ccccc1O [compound 122]"
result_value = "> 1000 nM"

[[record]]
compound = "Cc1cc(C[C@H]2CCCN(C)C2)nnc1-c1ccccc1O [compound 105]"
result_value = "> 1000 nM"

[[record]]
compound = "CN1CC[C@@H](N(C)c2ccc(-c3ccccc3O)nn2)C1 [compound 33]"
result_value = "> 1000 nM"

[[record]]
compound = "Cc1cc(F)cc(O)c1-c1ccc(O[C@@H]2CCCN(C)C2)nn1 [compound 72]"
result_value = "10 to 100 nM"


----------
# IC50 annotations
- experimental system: NLRP3 inflammasome (Homo sapiens, UniProt Q96P20)
- protocol description: NLRP3 inflammasome activation in THP1 macrophages, IL-1β AlphaLISA
- details: IL-1β Activity (nM), THP1 macrophages, PMA, LPS priming, nigericin 6.7 uM activation
property measured: IC50

[[record]]
entry_smiles = "Cc1cc(-c2ccc(C#N)cc2O)nnc1N[C@@H]1CCCN(C)C1"
experimental_system = "NLRP3 inflammasome (Homo sapiens, UniProt Q96P20)"
property_measured = "IC50"
result_value = "10 to 100 nM"

[[record]]
entry_smiles = "CN1CC[C@@H](Nc2ccc(-c3ccccc3O)nn2)C1"
experimental_system = "NLRP3 inflammasome (Homo sapiens, UniProt Q96P20)"
property_measured = "IC50"
result_value = "> 1000 nM"

[[record]]
entry_smiles = "Cc1ccc(-c2cc(C)c(N[C@@H]3CCCN(C)C3)nn2)c(O)c1"
experimental_system = "NLRP3 inflammasome (Homo sapiens, UniProt Q96P20)"
property_measured = "IC50"
result_value = "10 to 100 nM"

[[record]]
entry_smiles = "CCc1ccc(-c2ccc(N[C@@H]3CCCN(C)C3)nn2)c(O)c1"
experimental_system = "NLRP3 inflammasome (Homo sapiens, UniProt Q96P20)"
property_measured = "IC50"
result_value = "10 to 100 nM"

[[record]]
entry_smiles = "Cc1cc(N[C@@H]2CCCN(CCF)C2)nnc1-c1ccccc1O"
experimental_system = "NLRP3 inflammasome (Homo sapiens, UniProt Q96P20)"
property_measured = "IC50"
result_value = "10 to 100 nM"

[[record]]
entry_smiles = "Cc1cc(-c2cccc(C)c2O)nnc1N[C@@H]1CCCN(C)C1"
experimental_system = "NLRP3 inflammasome (Homo sapiens, UniProt Q96P20)"
property_measured = "IC50"
result_value = "1 to 10 nM"

[[record]]
entry_smiles = "CCc1ccc(-c2cc(C)c(N[C@@H]3CCCN(C)C3)nn2)c(O)c1"
experimental_system = "NLRP3 inflammasome (Homo sapiens, UniProt Q96P20)"
property_measured = "IC50"
result_value = "1 to 10 nM"

